- EXPERIMENT DESCRIPTION: Selectivity index, ratio of CC50 for human MT4 cells to EC50 for antiviral activity against HIV-1 IIIB harboring K103N/Y181C double mutant infected in human MT4 cells
- Format: toxicity, cell-based
- RUN PARAMETERS: read-out: Ratio CC50/EC50
Classify: satisfied when selectivity ratio is strictly less than 100; not satisfied when selectivity ratio is not.

Solved cases (10 shown):
CHEMICAL SMILES	CLASS NAME
Cc1cc(/C=C/C#N)cc(C)c1Oc1nc(NC2CCN(c3ccc(S(N)(=O)=O)cc3)CC2)nc2c1COC2	satisfied
Cc1cc(/C=C/C#N)cc(C)c1Oc1nc(NC2CCN(Cc3ccc(S(N)(=O)=O)cc3)CC2)nc2c1COC2	not satisfied
Cc1cc(/C=C/C#N)cc(C)c1Oc1nc(NC2CCN(c3ccc(C(N)=O)cc3)CC2)nc2c1COC2	not satisfied
Cc1cc(/C=C/C#N)cc(C)c1Oc1nc(NC2CCN(Cc3ccc(C(F)(F)F)cc3)CC2)nc2c1COC2	satisfied
Cc1cc(/C=C/C#N)cc(C)c1Oc1nc(NC2CCN(Cc3ccc(N)cc3)CC2)nc2c1COC2	not satisfied
Cc1cc(/C=C/C#N)cc(C)c1Oc1nc(NC2CCN(c3ccc(N)cc3)CC2)nc2c1COC2	satisfied
Cc1cc(/C=C/C#N)cc(C)c1Oc1nc(NC2CCN(Cc3ccc(C(N)=O)cc3)CC2)nc2c1COC2	not satisfied
Cc1cc(/C=C/C#N)cc(C)c1Oc1nc(NC2CCN(c3ccc(S(C)(=O)=O)cc3)CC2)nc2c1COC2	satisfied
Cc1cc(/C=C/C#N)cc(C)c1Oc1nc(NC2CCN(Cc3ccc(S(C)(=O)=O)cc3)CC2)nc2c1COC2	not satisfied
Cc1cc(/C=C/C#N)cc(C)c1Oc1nc(NC2CCN(c3ccc(NS(C)(=O)=O)cc3)CC2)nc2c1COC2	not satisfied

Attention now turns to another entry.
Query: Check if selectivity ratio falls below 100 for Cc1cc(/C=C/C#N)cc(C)c1Oc1nc(NC2CCN(c3ccc(NS(N)(=O)=O)cc3)CC2)nc2c1COC2 .
Response: not satisfied
